# System: ornithine decarboxylase (ODC)
# test-name: ODC assay: inhibition of TPA induction of ornithine decarboxylase (retinoic acid-like activity)
# Assay type: biochemical
# experimental-parameters: concentration of the test compound which causes 80% inhibition in the ODC assay; TPA-induced
measurement-kind: IC80 conc (nmols)

structure-smiles: CC1(C)CCC(=O)c2ccc(C#Cc3ccc(C(=O)O)cc3)cc21
test-system: ornithine decarboxylase (ODC)
unit-text: nmols
IC80 conc: 1.60

[1] CCOC(=O)c1ccc(C#Cc2ccc3c(c2)C(C)(C)CCC32SCCCS2)cc1
[2] CC1(C)CCC(=O)c2cc(C#Cc3ccc(C(=O)O)cc3)ccc21
Query: Kindly identify which of 1 and 2 has the larger recorded IC80 conc value. Answer by stating the label of the chosen item.
Reply: 1

[I] CCOC(=O)c1ccc(C#Cc2ccc3c(c2)C(C)(C)CCC3=O)cc1
[II] CC1(C)CCC2(SCCCS2)c2cc(C#Cc3ccc(C(=O)O)cc3)ccc21
[III] CCOC(=O)c1ccc(C#Cc2ccc3c(c2)C2(CCC3(C)C)SCCCS2)cc1
[IV] CCOC(=O)c1ccc(C#Cc2ccc3c(c2)C(=O)CCC3(C)C)cc1
[V] CCOC(=O)c1ccc(C#Cc2ccc3c(c2)C(C)(C)CCC3=O)nc1
Query: # ascending order, key=IC80 conc Show the ranking through the labels, in the order asked for.
Reply: IV, I, II, III, V

Taken from patent US5618943A.
